- Experimental target: MtYcaO (YcaO from Methanothermobacter sp. CaT2), MBP-His tag cut in the assay mixture (Methanothermobacter sp. CaT2)
- Test summary: fluorescence polarisation
Measured endpoint: pEC50
Would you please state pEC50, meaning minus log10 of the concentration in mol/L, as a bare number?

Form field pEC50, entry MtTfuA-S16A (enzyme) MHGKKIIIFTGPALSHTEASSILEAEYRPPVRRGDIQEAMKENPDIIGIIDGVFHQSPAVGHREIIDAIRRGVKVVGGASMGALRASELSDLGMVGVGRIFRSYLEGEIESDDDVAVAFNPETLEPLSDSLVSIEFNLKRALRRGVIREDDFRKLMNTARNLFYPLRNYRRILHESGIPDDVKESLRSFLESEGRDLKREDALEVIRHIKRLAYTE : 5.27
